# System: Target C
# protocol-description: HiBiT protein abundance assay, Target C (Promega Nano-Glo HiBiT Lytic Detection System, knock-in K562 cell line)
# Type: cell-based, human
# measurement-conditions: Homo sapiens, K562, 24 h, HiBiT K562 cell line, 24 hours, top dose 10 μM; read-out: Effect on protein abundance, Target C (IC50 category)
For each record, write down the corresponding IC50.

Here are 5 molecules together with their reported answers.
Param readout= IC50; system= Target C; entry= CC[C@@H]1C[C@H](n2ncc3cc(-c4cc(C)c5nc(C)cn5n4)ccc3c2=O)CCN1 ; returns value.
100 to 1000 nM

Target C / IC50 / Cn1cc2cc(-c3ncc4c(=O)n(C5CCNC5)ccc4n3)c(O)c(F)c2n1 (centres unmarked) : value?
1000 to 10000 nM

Please tell me: IC50 of Cc1cc(-c2ccc3c(=O)n(C4CC(C)(C)NC(C)(C)C4)cnc3c2)cc2cn(C)nc12 , system Target C?
1000 to 10000 nM

What measured IC50 is associated with Cc1cn2nc(-c3ccc4c(c3)CCN(C3CCN(C)CC3)C4=O)cc(C)c2n1 on Target C?
> 10000 nM

Provide the documented IC50 with Target C as the system for Cc1c(O)c(-c2ncc3c(=O)n([C@H]4CC[C@H](N(C)C)CC4)ccc3n2)cc2cn(C)nc12
100 to 1000 nM

// each molecule listed below needs its IC50
1. Cc1cn2nc(-c3cc(F)c4c(=O)n([C@H]5CCNC6(CC6)C5)ncc4c3)cc(C)c2n1
2. Cn1cc2ccc(-c3ccc4c(=O)n(C5CCNCC5)ncc4c3)cc2n1
3. Cc1cn2cc(-c3ncc4c(=O)n(C5CCNC5)ccc4n3)cc(C#N)c2n1 (centres unmarked)
4. Cc1nc2c(C)cc(-c3ccc4c(=O)n(C5CCNC6(CC6)C5)ncc4c3)cc2o1 (centres unmarked)

1: < 100 nM; 2: 1000 to 10000 nM; 3: 100 to 1000 nM; 4: 1000 to 10000 nM

For every item below, please supply its IC50.
1. Cc1cc(-c2cc(O)c3c(=O)n(C4CCNC5(CC5)C4)ncc3c2)cc2cn(C)nc12 (centres unmarked)
2. O=c1c2ccc(-c3cn[nH]c3)cc2cnn1C1CCNCC1
3. Cc1cn2cc(-c3ccc4c(=O)n(C5CCNCC5)cnc4c3)ncc2n1
4. Cc1cn2nc(-c3cc4ccn([C@@H]5CCNC5)c(=O)c4cc3O)cc(C)c2n1
5. Cc1nc2c(F)cc(-c3cc(F)c4c(=O)n(C5CCNC6(CC6)C5)ccc4c3)cc2n1C (centres unmarked)
6. Cn1cc2cc(-c3ccc4c(=O)n(C5CCNCC5)cnc4c3)ccc2n1
7. Cc1cn2cc(-c3cc(F)c4c(=O)n([C@@H]5CNC[C@@H]5C)ccc4c3)cc(F)c2n1
8. Cc1cn2nc(-c3cc(F)c4c(=O)n([C@@H]5CCNC6(CC6)C5)ccc4c3)cc(C)c2n1 (single isomer, unassigned)

1: 100 to 1000 nM; 2: > 10000 nM; 3: 1000 to 10000 nM; 4: 1000 to 10000 nM; 5: > 10000 nM; 6: 1000 to 10000 nM; 7: > 10000 nM; 8: < 100 nM
